Exercise: for every item that follows, state its recorded microsomal CLint at 1 µM.
Assay: in vitro
Conditions: human, microsomes, pH 7.4, HLM CLint
Numbers only, in µL/min/mg.

[[record]]
compound = "CCCCN(CCCC)CCC(O)c1cc2c(Cl)cc(Cl)cc2c2cc(C(F)(F)F)ccc12 (stereo not drawn)"
measured_attribute = "microsomal CLint at 1 µM"
test_value = 26.9

[[record]]
compound = "CCN(CC)Cc1cc(Nc2ccnc3cc(Cl)ccc23)ccc1O"
measured_attribute = "microsomal CLint at 1 µM"
test_value = 308


// next entry
Can you share its microsomal CLint at 1 µM? I mean this compound: C[C@H]1[C@H](OC(=O)CCC(=O)O)O[C@@H]2O[C@@]3(C)CC[C@H]4[C@H](C)CC[C@@H]1[C@@]24OO3 [Artesunate] 146

###

Biological target: Albumax medium (lipid rich bovine serum albumin) (Bos taurus, UniProt P02769)
Construct: purchased Gibco, Thermo Fisher Scientific
Sequence (P02769 25-607): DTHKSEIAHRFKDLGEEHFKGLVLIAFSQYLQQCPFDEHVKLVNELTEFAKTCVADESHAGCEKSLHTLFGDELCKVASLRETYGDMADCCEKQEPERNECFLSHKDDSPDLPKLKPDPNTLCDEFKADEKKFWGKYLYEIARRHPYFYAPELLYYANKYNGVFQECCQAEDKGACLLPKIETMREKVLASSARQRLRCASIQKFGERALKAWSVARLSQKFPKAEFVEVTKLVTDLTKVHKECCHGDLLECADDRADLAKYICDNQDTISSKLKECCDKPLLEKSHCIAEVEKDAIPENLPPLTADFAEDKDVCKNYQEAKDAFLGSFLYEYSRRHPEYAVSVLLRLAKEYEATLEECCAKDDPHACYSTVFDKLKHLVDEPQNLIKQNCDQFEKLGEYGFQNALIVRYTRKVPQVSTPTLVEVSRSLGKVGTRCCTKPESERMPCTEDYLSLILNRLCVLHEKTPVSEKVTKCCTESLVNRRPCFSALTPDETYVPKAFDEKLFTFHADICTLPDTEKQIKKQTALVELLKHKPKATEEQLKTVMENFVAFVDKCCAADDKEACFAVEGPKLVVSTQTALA
Assay: Binding in Albumax medium via ultracentrifugation
Type: in vitro ADME
Details: bovine, isolated protein, pH 7.4, instability evident, estimate only
Description: An ultracentrifugation method adapted from a previous publication was initially used to assess plasma protein binding and binding in the other media. […] Total matrix and protein free samples were analysed using a matrix matching approach whereby each sample was mixed in a 1:1 ratio with the opposite blank medium (i.e. blank total matrix or blank protein free buffer). […] The standard deviation for fu was calculated using the propagation of errors approach as described previously. […]
MEASURED_ATTRIBUTE: fraction unbound at […], 500 ng/mL

Can you share its fraction unbound at […], 500 ng/mL? I mean this molecule: C[C@H]1[C@@H](O)O[C@@H]2O[C@@]3(C)CC[C@H]4[C@H](C)CC[C@@H]1[C@@]24OO3 [Dihydroartemisinin] 0.34

###

Target: CYP2D6 (Homo sapiens, UniProt P10635)
Sequence (P10635 whole entry): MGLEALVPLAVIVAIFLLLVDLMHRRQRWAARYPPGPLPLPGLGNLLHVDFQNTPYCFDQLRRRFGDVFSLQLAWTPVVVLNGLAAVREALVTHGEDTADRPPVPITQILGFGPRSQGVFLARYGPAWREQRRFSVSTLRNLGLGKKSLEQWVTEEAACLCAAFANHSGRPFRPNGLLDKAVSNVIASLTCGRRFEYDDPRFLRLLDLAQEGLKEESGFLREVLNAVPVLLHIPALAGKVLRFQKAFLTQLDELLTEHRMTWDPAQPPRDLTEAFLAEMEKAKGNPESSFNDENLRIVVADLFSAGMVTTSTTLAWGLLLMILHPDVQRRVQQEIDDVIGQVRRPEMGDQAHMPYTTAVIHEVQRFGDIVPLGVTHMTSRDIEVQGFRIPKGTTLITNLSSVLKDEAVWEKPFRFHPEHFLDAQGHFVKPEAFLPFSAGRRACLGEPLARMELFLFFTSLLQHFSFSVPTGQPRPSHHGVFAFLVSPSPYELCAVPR
Test: in vitro
Settings: microsomes
MEASURED_ATTRIBUTE: IC50 (µM)
One number for each entry, in µM.

Illustrative cases are given below, each with its answer.
[[record]]
compound = "COc1cc2[nH]c(C)c(-c3ccc(Oc4ccc(OC(F)(F)F)cc4)cc3)c(=O)c2cc1Cl"
measured_attribute = "IC50"
test_value = 8

[[record]]
compound = "CC(C)(C)NCc1cc(C(C)(C)C)cc(-c2cnc(C(F)(F)F)c(F)c2)c1O"
measured_attribute = "IC50"
test_value = 0.7

[[record]]
compound = "CC(C)(C)NCc1cc(Nc2ccnc3cc(Cl)ccc23)c2c(c1O)CCCC2"
measured_attribute = "IC50"
test_value = 1.1


Can you give me IC50 for all of these, one by one?
1. CN(C)C[c-]1cccc1CNc1ccnc2cc(Cl)ccc12.[Fe+2].c1cc[cH-]c1 (centres unmarked)
2. CCN(CC)CCCNc1ccnc2cc(Cl)ccc12.Cl.Cl

1: 0.83; 2: 13

###

Molecular target: CYP2C9 (Homo sapiens, UniProt P11712)
Sequence (P11712 whole entry): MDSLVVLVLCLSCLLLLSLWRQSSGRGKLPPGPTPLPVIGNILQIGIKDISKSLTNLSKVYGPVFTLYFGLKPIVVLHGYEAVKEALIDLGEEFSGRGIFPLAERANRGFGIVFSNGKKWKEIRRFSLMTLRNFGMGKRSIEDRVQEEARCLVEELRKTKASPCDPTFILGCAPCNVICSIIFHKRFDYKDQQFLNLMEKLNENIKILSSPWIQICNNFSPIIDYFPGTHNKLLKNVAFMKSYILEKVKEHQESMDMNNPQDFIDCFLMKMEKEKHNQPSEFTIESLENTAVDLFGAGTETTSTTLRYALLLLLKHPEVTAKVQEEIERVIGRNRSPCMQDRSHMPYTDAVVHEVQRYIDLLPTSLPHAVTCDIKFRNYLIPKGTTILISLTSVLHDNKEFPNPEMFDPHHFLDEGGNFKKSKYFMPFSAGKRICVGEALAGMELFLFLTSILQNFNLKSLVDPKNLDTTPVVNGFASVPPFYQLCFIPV
Assay: Cytochrome P450 inhibition in human liver microsomes
Description: The CYP inhibition assay was based on a previous publication with minor modifications. The method uses human liver microsomes and a substrate-specific interaction approach which relies on the formation of a metabolite that is mediated by a specific CYP isoform. […] Concentrations of the substrate-specific metabolites in quenched samples were determined by LC–MS (Additional file 1: Table S5) relative to calibration standards prepared in quenched microsomal matrix. […]
MEASURED_ATTRIBUTE: IC50

Illustrative cases are given below, each with its answer.
[[record]]
compound = "CS(=O)(=O)c1ccc(-c2cnc(N)c(-c3ccc(C(F)(F)F)nc3)c2)cc1"
measured_attribute = "IC50"
test_value = "> 20 µM"

[[record]]
compound = "COc1cc(C)c2c(Oc3cccc(C(F)(F)F)c3)c(OC)cc(NC(C)CCCN)c2n1 (centres unmarked)"
measured_attribute = "IC50"
test_value = "14 µM"

[[record]]
compound = "Cc1nc(Nc2ncc(N3CCN(C)[C@H](C)C3)c(Nc3cc(C)n(C)n3)n2)cc(C2CC2)c1F"
measured_attribute = "IC50"
test_value = "> 20 µM"


Can you give me IC50 for all of these, one by one?
1. COc1ncnc(NS(=O)(=O)c2ccc(N)cc2)c1OC
2. O=C1C(O)=C([C@H]2CC[C@H](c3ccc(Cl)cc3)CC2)C(=O)c2ccccc21
3. CC(C)NC(=N)NC(=N)Nc1ccc(Cl)c(Cl)c1

> 20 µM
> 20 µM
> 20 µM
